- STUDY_SYSTEM: PI3Kγ (Homo sapiens)
- Sequence (P48736 whole entry): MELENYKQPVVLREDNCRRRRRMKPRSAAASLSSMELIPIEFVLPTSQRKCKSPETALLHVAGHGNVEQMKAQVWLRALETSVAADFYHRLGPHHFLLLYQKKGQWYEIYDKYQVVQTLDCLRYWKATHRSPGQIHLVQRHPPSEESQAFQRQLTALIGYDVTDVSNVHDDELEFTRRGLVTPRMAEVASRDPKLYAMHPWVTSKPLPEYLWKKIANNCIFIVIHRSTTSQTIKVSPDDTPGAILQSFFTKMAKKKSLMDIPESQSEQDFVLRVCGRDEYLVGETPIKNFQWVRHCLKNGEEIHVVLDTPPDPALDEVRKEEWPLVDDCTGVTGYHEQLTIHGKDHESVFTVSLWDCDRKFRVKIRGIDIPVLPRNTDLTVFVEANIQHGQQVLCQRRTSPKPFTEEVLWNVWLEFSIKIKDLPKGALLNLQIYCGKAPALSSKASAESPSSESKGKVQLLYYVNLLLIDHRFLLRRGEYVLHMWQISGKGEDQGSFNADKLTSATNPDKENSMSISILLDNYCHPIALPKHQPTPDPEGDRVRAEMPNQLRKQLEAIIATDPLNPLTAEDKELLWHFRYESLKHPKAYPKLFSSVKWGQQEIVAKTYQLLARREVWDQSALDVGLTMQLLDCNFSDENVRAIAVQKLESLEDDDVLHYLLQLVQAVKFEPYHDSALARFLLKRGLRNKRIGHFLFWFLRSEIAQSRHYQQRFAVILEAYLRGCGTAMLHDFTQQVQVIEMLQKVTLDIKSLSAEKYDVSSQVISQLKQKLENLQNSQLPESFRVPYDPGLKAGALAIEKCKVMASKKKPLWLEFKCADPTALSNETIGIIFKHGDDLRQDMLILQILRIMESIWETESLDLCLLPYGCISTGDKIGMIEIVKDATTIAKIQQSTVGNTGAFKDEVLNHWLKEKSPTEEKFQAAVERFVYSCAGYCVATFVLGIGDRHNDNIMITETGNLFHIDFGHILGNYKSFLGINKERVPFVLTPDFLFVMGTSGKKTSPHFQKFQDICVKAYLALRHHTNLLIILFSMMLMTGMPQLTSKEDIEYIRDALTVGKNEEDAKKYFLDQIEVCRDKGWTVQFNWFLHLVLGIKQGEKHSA
- TEST_NAME: Kinase experiment (ADP-Glo, luminescence), PI3Kγ
- Assay type: biochemical
- REPORTED_CONDITIONS: final concentration of ATP 10 μM; read-out: IC50 of compound to PI3K (nM) γ
Task for the reader: assign each of the following compounds its reported IC50.

Param item = CC(C)[C@@H]1C(=O)N(C2CC2)C(=O)N1c1cn2c(n1)-c1ccc(N3CCC[C@H]3C(N)=O)cc1OCC2 ; retrieve measured IC50.
300 to 600 nM

Param item = CC(C)C1C(=O)N(C2CC2)C(=O)N1c1cn2c(n1)-c1ccc(N3CCC[C@H]3C(N)=O)cc1OCC2 (some centres unmarked) ; retrieve measured IC50.
300 to 600 nM

Param item = CC(C)C1C(=O)N(C)C(=O)N1c1cn2c(n1)-c1ccc(N3CCC[C@H]3C(N)=O)cc1OCC2 (some centres unmarked) ; retrieve measured IC50.
> 600 nM

Param item = CC(C)[C@H]1C(=O)N(C2CC2)C(=O)N1c1cn2c(n1)-c1ccc(N3CCC[C@H]3C(N)=O)cc1OCC2 ; retrieve measured IC50.
> 600 nM

Param item = CC(C)C1C(=O)N(c2ccc(F)cc2)C(=O)N1c1cn2c(n1)-c1ccc(N3CCC[C@H]3C(N)=O)cc1OCC2 (some centres unmarked) ; retrieve measured IC50.
> 600 nM
